Just for reference, patent WO2012175740A1 is where these values come from.

The following binders are listed with their measured % inhibition by 500 nM Nanobody values.
TARGET_OR_TEST_SYSTEM: T1, human IgE (Diatec, Oslo, Norway) (human, UniProt P01854-1 1-428)
T1 construct: Bought whole IgE; biotinylated in the Alphascreen assays, amine-coupled in SPR; also called HuIgE; HulgE
T1 sequence (P01854 other isoform, or with tags, fused parts or gaps): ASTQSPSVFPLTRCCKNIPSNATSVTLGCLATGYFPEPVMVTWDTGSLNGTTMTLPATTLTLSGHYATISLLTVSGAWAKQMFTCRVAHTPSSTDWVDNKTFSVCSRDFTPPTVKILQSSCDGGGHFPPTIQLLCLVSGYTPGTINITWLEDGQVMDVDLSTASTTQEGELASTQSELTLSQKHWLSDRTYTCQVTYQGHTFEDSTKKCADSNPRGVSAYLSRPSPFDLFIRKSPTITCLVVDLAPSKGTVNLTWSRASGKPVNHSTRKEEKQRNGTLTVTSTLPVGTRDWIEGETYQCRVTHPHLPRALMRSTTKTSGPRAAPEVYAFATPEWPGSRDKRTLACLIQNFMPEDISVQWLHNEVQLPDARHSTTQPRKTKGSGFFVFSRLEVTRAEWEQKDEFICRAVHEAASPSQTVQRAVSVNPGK
PROTOCOL_DETAILS: ELISA, competition with coated Fc(epsilon)RI for HuIgE
Please respond with the number in % and leave the unit unwritten.

BINDER	VALUE_UNITS	% inhibition by 500 nM Nanobody
Nanobody 39D8 (VHH, also called 39D08; not shown: C-terminal c-myc tag and His6 tag) VHH: EVQLVESGGGLVQPGGSLRLSCAASGFTFGSYDMSWVRQAPGKGPEWVSSIDTGGDITHYADSVKGRFTISRDNANNMLYLQMNSLKPGDTAVYWCATDEDYALGPNEYDYYGQGTQVTVSS	%	99.4
Nanobody 42D7 (VHH, not shown: C-terminal c-myc tag and His6 tag) VHH: EVQLVESGGGLVQPGGPLRLSCAASGFTFGSYDMSWVRQAPGKGPEWVSSIDTGGDITHYADSVKGRFTISRDNANNMLYLQMNSLKPEDTAVYWCATDEDYALGPNEYDYYGQGTQVTVSS	%	99.6
Nanobody 39D11 (VHH, not shown: C-terminal c-myc tag and His6 tag) VHH: EVQLVESGGGLVQPGGSLRLSCAASGFTFGSYDMSWVRQAPGKGPEWVSSIDTGGDITHYADSVKGRFTISRDNANNMLYLQMNSLKPEDTAVYWCATDEDYALGPNEYDYYGQGTQVTVSS	%	99.5
Nanobody 39B2 (VHH, also called 39B02; not shown: C-terminal c-myc tag and His6 tag) VHH: EVQLVESGGGLVQPGGSLRLSCAASGFTFGSYDMSWVRQAPGKGPEWVSAINSGGGSTYYADSVKGRFTISRDNAKNTLYLQMNSLKPEDTAVYYCSTDLGPWIEGTMEEYEYEYWGQGTQVTVSS	%	69.3
Nanobody 36G5 (VHH, not shown: C-terminal c-myc tag and His6 tag) VHH: EVQLVESGGGLVQPGGSLRLSCVASGFTFGSYDMSWVRQAPGKRPEWVSAINSGGGSTYYADSVKGRFTISRDNAKNTLYLQMNSLKPEDTAVYYCATDEDYALGPNEYDYYGQGTQVTVSS	%	98.6

Now turn to the next binder.
input: Request the reported % inhibition by 500 nM Nanobody associated with Nanobody 42G5 (VHH, not shown: C-terminal c-myc tag and His6 tag) VHH: EVQLVESGGGLVRPGGSLRLSCAASGFTFGNYDMSWVRQAPGKGPEWVSSIDTGGDITHYADPVKGRFTISRDNAANTLYLQMNSLKPEDTAVYYCATDEDYALGPNEYDYYGQGTQVTVSS
output: 98.1
